System: SRPK3;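 further: KINOMEscan kinase panel screen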
Conditions: concentration: 1 μM, replicates: in singlicate; n = 1
endpoint name: %Inh (%)

Nc1ncnc2scc(-c3ccc(NC(=O)Cc4cc(F)ccc4F)cc3)c12.O=C(O)C(F)(F)F :: 3
O=C(Nc1n[nH]c2nc(-c3cccc(O)c3)ccc12)C1CC1 :: 32
CC(C)(C)c1ccc(C(=O)Nc2cn3cc(-n4ccnc4)ccc3n2)cc1 :: 0
Cl.Cl.NCC(NC(=O)c1cc(-c2cccnc2)c(-c2ccnc3[nH]ccc23)s1)c1ccccc1 (centres unmarked) :: 0
CSc1ccc(NC2=C(c3ccc(Cl)cc3)C(=O)NC2=O)cc1 :: 9
CN1CCN(Cc2ccc(NC(=O)Nc3ccc(N(C)c4ccnc(Nc5ccc(CS(C)(=O)=O)cc5)n4)cc3)cc2)CC1.Cl :: 82
CN(C)CCNS(=O)(=O)c1ccc(-c2ccnc3[nH]ccc23)cc1 :: 0
Nc1ncc(-c2ccc3nccc(-c4ccncc4)c3c2)cc1S(=O)(=O)N1CCCCC1 :: 0
